Entries and their z-score
systemTested: NADPH oxidase 4 (Homo sapiens) (UniProt Q9NPH5)
Sequence (Q9NPH5 whole entry, looked up): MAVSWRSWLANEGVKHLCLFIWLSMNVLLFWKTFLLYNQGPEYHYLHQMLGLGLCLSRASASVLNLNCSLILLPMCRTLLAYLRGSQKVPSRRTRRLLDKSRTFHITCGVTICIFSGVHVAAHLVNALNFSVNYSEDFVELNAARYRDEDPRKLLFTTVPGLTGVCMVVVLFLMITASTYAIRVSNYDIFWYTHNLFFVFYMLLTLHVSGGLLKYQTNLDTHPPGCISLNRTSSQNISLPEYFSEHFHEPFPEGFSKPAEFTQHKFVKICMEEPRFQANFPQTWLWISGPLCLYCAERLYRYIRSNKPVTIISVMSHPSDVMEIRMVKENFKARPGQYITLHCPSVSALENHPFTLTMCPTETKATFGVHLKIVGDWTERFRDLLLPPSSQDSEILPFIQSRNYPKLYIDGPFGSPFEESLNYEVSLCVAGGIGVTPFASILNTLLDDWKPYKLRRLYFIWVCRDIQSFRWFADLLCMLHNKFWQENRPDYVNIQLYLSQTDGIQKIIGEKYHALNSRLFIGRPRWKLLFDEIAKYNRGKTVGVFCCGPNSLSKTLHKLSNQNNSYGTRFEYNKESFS
assayComment: NOX4-dependent H2O2 signal modulators, primary screen, NOX inhibitor project, cell-based, HEK293-NOX4, tetracycline-induced, Amplex Red fluorescence (AID 1160)
reportedConditions: 45 min, higher = more signal, called active from +8 up or from −8 down

- compound: "COc1ccc(O[C@H]2C=C[C@@H](c3ccccc3)O[C@@H]2COC(=O)CCC(C)=NOC(C)CN2CCCc3nc(C)c(C)cc32)cc1 (stereo not given in full)"
  z-score: -0.643
- compound: "C#CCCCON=C1C[C@@H](O)[C@@H](O)[C@@H]2[C@@H]3C(=O)N(C(C)(C)C)C(=O)[C@@H]3CC[C@@H]12"
  z-score: 1.27
- compound: "CCN1C(=O)[C@H]2[C@H]3[C@H](O)[C@H](O)CC(=NNC(=O)OCc4ccc(OC)cc4)[C@@H]3CC[C@H]2C1=O"
  z-score: 0.659
- compound: "C#CCCCON=C1C[C@@H](O)[C@@H](O)[C@@H]2[C@@H]3C(=O)N(CC)C(=O)[C@@H]3CC[C@@H]12"
  z-score: 0.764
- compound: "CON=Cc1ccc(C(=O)N2[C@H](c3ccc(C)cc3)[C@@H](C)CC[C@H]2C(=O)OC)cc1"
  z-score: -0.304
